Test system: HEK293T
Test: median enrichment of reporter reads in eGFP-reduced (low/intermediate) vs eGFP-high sorted cells (eGFP-extension fusion abundance) (ratio); higher = stronger loss of eGFP-fusion protein abundance (more destabilising extension)
Assign condition met to entries whose median enrichment meets or exceeds 5; assign condition not met to the rest.

[[record]]
substance = "RTDCRSWEPRHAQASAEGAAGGSARLDPWHLIKKFSLMSMVVGQPSSLSQQAHAASVTSSPAVYTGHCGPEWLGPCRSYTTGC [ZFPM1]"
discrete_label = "condition not met"

[[record]]
substance = "KKNQNGLR [ADGRB3]"
discrete_label = "condition not met"

[[record]]
substance = "KHLHVLSNFACPFSSVSE [CYB5R2]"
discrete_label = "condition not met"

[[record]]
substance = "LKELIFNFSLQTGQH [TAF7]"
discrete_label = "condition met"

[[record]]
substance = "LNFHTEF [TP53BP2]"
discrete_label = "condition not met"

[[record]]
substance = "QPWSITLPPSPGTTGPITFECCIWISRCLCGSLPHFSWT [UBE2Q1]"
discrete_label = "condition met"


---

System: HEK293T
Test: median enrichment of reporter reads in eGFP-reduced (low/intermediate) vs eGFP-high sorted cells (eGFP-extension fusion abundance) (ratio); higher = stronger loss of eGFP-fusion protein abundance (more destabilising extension)
Class assignment keyed on median enrichment, ranges 0 = under 5, 1 = from 5 up to 7, 2 = 7 and over

[[record]]
substance = "QEKAIWDLITLNRHANTVCVRALCIQ [PCDH9]"
discrete_label = 1

[[record]]
substance = "STFLHTQPLLYSTSCPGASHTPELICIILTIFSLLSPFFLFERPSLISKM [TRIM5]"
discrete_label = 2

[[record]]
substance = "CGSRPGRPFARRRGMGERT [ARHGEF1]"
discrete_label = 2

[[record]]
substance = "GGGGQVTRSGLSFWGCRSTEPLTPVCPRSPNRCGSSSERLSVQAMGQDRKVPELGKPGCNFLLHPAPPEVLRRVFLGIVFCSC [JUP]"
discrete_label = 1

[[record]]
substance = "SEERMYVCFTHRHQESSPMRFFFGGGRVYTAREQKYCVS [B4GALT5]"
discrete_label = 2

[[record]]
substance = "LTSDRRSSLSSLSGSKMTRANGTKFESCQVNTWVLSMVTSICFVMCVLFQPEWEMLIQLLQAAQWGWWL [CFH]"
discrete_label = 1

[[record]]
substance = "YVLRWNSLGEHLMSQPIQLPHNPAEGRVRGE [WDR62]"
discrete_label = 2

[[record]]
substance = "SGNRDAFPCSSLQPPLPYKIWSNS [ADH1B]"
discrete_label = 0

[[record]]
substance = "YCLRGRLAASPAPPDLAPRAAAGAAACPGPPLRPASSRRPGAQPCAAEDSRDWRRPRPATAGARGHLPGLLTLSPHWEWAPRG [TMUB1]"
discrete_label = 1

[[record]]
substance = "RGPEASWVSLGPQKLIKE [PCP2]"
discrete_label = 0

[[record]]
substance = "YVRTVG [UFD1]"
discrete_label = 0

[[record]]
substance = "LQGPLDL [OR56A3]"
discrete_label = 0

[[record]]
substance = "CAWSAHRLSSAFALLRCYRTLAPDVCSFTGCLICLLHPTGPPTSSDVFLIMSAMCPILLHALPPFPTTAEWPGTCLKCLFPIS [F11R]"
discrete_label = 1

[[record]]
substance = "WQQPQG [CCNB3]"
discrete_label = 0

[[record]]
substance = "CQLLHILGPCLFSQDRLLKAEEPVLGAPSQTPKTCFHVPRSLLTSPNKGP [PSENEN]"
discrete_label = 2

[[record]]
substance = "SNQFLGLTAM [BTN2A1]"
discrete_label = 0

[[record]]
substance = "GAPPPGWTGAWLPSSFLPWLPEETPLTQPAWALTTNTLGHGQPAQDRLPALGHCAPISVLGLGSS [TTYH1]"
discrete_label = 2


---

System: HEK293T
Test: median enrichment of reporter reads in eGFP-reduced (low/intermediate) vs eGFP-high sorted cells (eGFP-extension fusion abundance) (ratio); higher = stronger loss of eGFP-fusion protein abundance (more destabilising extension)
quantity.kind: median enrichment

[[record]]
macromolecule_sequence = "LWRSLVRRQDFSGLCLNGPHLNFSPFFLFLALGKASFYQTYRERKLQG [CTCF]"
system_tested = "HEK293T"
endpoint_result = 9.53

[[record]]
macromolecule_sequence = "YKLVLCSG [ZDBF2]"
system_tested = "HEK293T"
endpoint_result = 6.14

[[record]]
macromolecule_sequence = "RPWPRAQACLGWALPLTTQGGPGPLGFLPWGQQPPAGLVGSGFLDFLMKRGYL [KCNH4]"
system_tested = "HEK293T"
endpoint_result = 4.41

[[record]]
macromolecule_sequence = "QENKNCRK [MRPL13]"
system_tested = "HEK293T"
endpoint_result = 0.366

[[record]]
macromolecule_sequence = "REDAFLFMGFLPWSLSSKCHSGQSFVSVS [NOD1]"
system_tested = "HEK293T"
endpoint_result = 33.9

[[record]]
macromolecule_sequence = "QSKQGRNVQVNNKSPHTLLTPWRQLLFRSFICLLQESFLPLT [SIRPD]"
system_tested = "HEK293T"
endpoint_result = 4.67

[[record]]
macromolecule_sequence = "LGRLCPLPASLLCFPSPVSSLPSRPRHLPSVPWLSRTFYPTVRPQRGQDKPCPDAFDRQLCVLVDRCRNKEEMESAPEKLQIQ [H6PD]"
system_tested = "HEK293T"
endpoint_result = 6.07

[[record]]
macromolecule_sequence = "SAASWPWGRGLGCGAVWVLSSSPLPRPSLSNPAWDLGFNAEAMSLSGPASGYSHPGTEKAADGDCLPQPQQHLGLQLLESYHP [LGALS9]"
system_tested = "HEK293T"
endpoint_result = 7.86

[[record]]
macromolecule_sequence = "WGHQSPQWTDAFDGQDEGQGHWSEGVDKTAAI [TBC1D21]"
system_tested = "HEK293T"
endpoint_result = 0.0629

[[record]]
macromolecule_sequence = "LTLLKTGQSLPLCTF [MYCN]"
system_tested = "HEK293T"
endpoint_result = 15.2

[[record]]
macromolecule_sequence = "RLVIFFQRVMQSGYKRIFCLPYKGILPAAKFKQ [ARMC10]"
system_tested = "HEK293T"
endpoint_result = 14.7

[[record]]
macromolecule_sequence = "YVHGLSLYPTALLCDSLMKLVTFTSQNFG [KDM4D]"
system_tested = "HEK293T"
endpoint_result = 7.32

[[record]]
macromolecule_sequence = "YPGASWLRLAPSGHLPWSDPFQMKCGDIDLFFFFFETEFHSCCPVWSAMAQSQLTATSASWVQAILLPQPPK [SPC24]"
system_tested = "HEK293T"
endpoint_result = 7.7

[[record]]
macromolecule_sequence = "WWWWWWWWWW [Trp10]"
system_tested = "HEK293T"
endpoint_result = 4.65

[[record]]
macromolecule_sequence = "SKNQRGSEKPRET [CDKN2A]"
system_tested = "HEK293T"
endpoint_result = 0.493

[[record]]
macromolecule_sequence = "YGVAQGAPGRGPGPRTL [TMEM38A]"
system_tested = "HEK293T"
endpoint_result = 0.588

[[record]]
macromolecule_sequence = "YKRPWSGPTLRPSISQALSAVIPRTQWAPCTPVSGAVRLGYIVNSASTERLALRASSESSSSGTPPKPTPPGTPLSGIPAKRR [PRRT1]"
system_tested = "HEK293T"
endpoint_result = 1.15

[[record]]
macromolecule_sequence = "LLYSILWSSSSVARPLILSFAHVHPN [KCNK17]"
system_tested = "HEK293T"
endpoint_result = 25.2

[[record]]
macromolecule_sequence = "QCGSCDRGSSSAEPQTVLPCSMCLKAQGDIPLGWPLPPP [DIAPH1]"
system_tested = "HEK293T"
endpoint_result = 1.17

[[record]]
macromolecule_sequence = "YEPYSFKPYVFLCAFFPYPSSLALPFLNTAAL [UBQLN3]"
system_tested = "HEK293T"
endpoint_result = 7.8

[[record]]
macromolecule_sequence = "QPHGAVLLMLEAS [ESPL1]"
system_tested = "HEK293T"
endpoint_result = 6.52

[[record]]
macromolecule_sequence = "EVQPACSCIQKPATTQPISACAYPDKKTKIPLGKTQALTLLFKWPLQKV [TPD52L1]"
system_tested = "HEK293T"
endpoint_result = 13


---

System: HEK293T;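 note: lentiviral eGFP-IRES-mCherry reporter pool sorted by FACS 96 h post-transduction, gated on mCherry-high cells, Illumina read counts normalized per million, median across four biological replicates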
Assay: median enrichment of reporter reads in eGFP-reduced (low/intermediate) vs eGFP-high sorted cells (eGFP-extension fusion abundance) (ratio); higher = stronger loss of eGFP-fusion protein abundance (more destabilising extension)
quantity.kind: median enrichment

[[record]]
substance = "RGIRLPGNSGTVALADHLQHPAS [SLC2A10]"
quantity_kind = "median enrichment"
endpoint_result = 0.279

[[record]]
substance = "GRGMASGREGGIVGGQGSGFGSRWEQGLVKLFVSGPQ [PAQR7]"
quantity_kind = "median enrichment"
endpoint_result = 12.5

[[record]]
substance = "SHFKLTL [PTGIR]"
quantity_kind = "median enrichment"
endpoint_result = 1.1

[[record]]
substance = "WGGVGPGRAGVCWHRQPPLWALGGPLKGSPTRGPDESFLSGVGSQRGSPPAAWGRAWPGRVIQRVCQPLTGSPSVAATRSTEL [FAM53B]"
quantity_kind = "median enrichment"
endpoint_result = 5.84

[[record]]
substance = "YELNKNKIQV [CXorf66]"
quantity_kind = "median enrichment"
endpoint_result = 0.339

[[record]]
substance = "EDPGTQRLCPPRPQSVPITLTVLHTVHAPLLAFFREKENFTTGSH [SERTAD2]"
quantity_kind = "median enrichment"
endpoint_result = 6.58

[[record]]
substance = "PARVSGPRSIENTTTMARWKGLLVPASSCPPWCRWPGQPTGLGTGQAGPGRGLSLGGNKSRPTRRCCSGSRCRCRDKSAAVSG [MLST8]"
quantity_kind = "median enrichment"
endpoint_result = 9

[[record]]
substance = "LAQLPLSYSSATPQLPLSPAAARATARPGLSSARLTSARPAGLLKAVGRTPA [MED16]"
quantity_kind = "median enrichment"
endpoint_result = 5.35

[[record]]
substance = "WCLHHLCSCSLKGSPYSKPPKLGDPSSP [MPIG6B]"
quantity_kind = "median enrichment"
endpoint_result = 6.53

[[record]]
substance = "LPVGCFTSTPAPPASNAHSTPNTTPCPTNAHSRAW [C1QB]"
quantity_kind = "median enrichment"
endpoint_result = 1.02

[[record]]
substance = "GCGLNCRLTK [MYO16]"
quantity_kind = "median enrichment"
endpoint_result = 0.777

[[record]]
substance = "YIWLFMHCGMCSSFSVFRYKVLYQSVIYKVYQHKCW [MLH1]"
quantity_kind = "median enrichment"
endpoint_result = 23.5

[[record]]
substance = "LPAIDNVAGTSASPLQPSNFPGTLLSAPEEGAVVSCCLWAPASSAVLGSVLLASVNNKATVCSGICGFVHSVTCHLHRALMAG [MCM5]"
quantity_kind = "median enrichment"
endpoint_result = 5.35

[[record]]
substance = "YRLFVHYCFHFVPRVKQTTEKSNQVITYPSAGDFDY [ZBBX]"
quantity_kind = "median enrichment"
endpoint_result = 10.1

[[record]]
substance = "YYYYYYYYY [Tyr09]"
quantity_kind = "median enrichment"
endpoint_result = 4.03

[[record]]
substance = "WWRDTRGLATLWGNWHQELLHLVSAQVDLRKGWIPVPEHQIPRQLMRLAQCVTEAPGSQQSRAYSAHQAEQATGRDDASGQGS [CCDC137]"
quantity_kind = "median enrichment"
endpoint_result = 7.53

[[record]]
substance = "YISLFVSMRCPTGPI [CADM1]"
quantity_kind = "median enrichment"
endpoint_result = 15.7

[[record]]
substance = "YGLQKNWPWGTKAFFSGLLPRP [KANK4]"
quantity_kind = "median enrichment"
endpoint_result = 43.3

[[record]]
substance = "QEHPHDIAFGGAPVACRIACGLCNLLRFKTDGHMCQWGSLSPGPKKQGTKFKTLASSQPLKPWPPEFPFLSLSFYFFYFYFYF [JAK3]"
quantity_kind = "median enrichment"
endpoint_result = 7.54

[[record]]
substance = "LGRTSALSDRTLRAMLPCHP [MRGPRX3]"
quantity_kind = "median enrichment"
endpoint_result = 7.42

[[record]]
substance = "LRLSISRDMVLTQQFPVMAKCSI [IL13RA2]"
quantity_kind = "median enrichment"
endpoint_result = 41.5

[[record]]
substance = "CAPWWERL [HTT]"
quantity_kind = "median enrichment"
endpoint_result = 1.22

[[record]]
substance = "LEMKKDEVLTQ [DNAJC5G]"
quantity_kind = "median enrichment"
endpoint_result = 0.255

